- Tested on: 327498-153-R-J2-PDC complex spheroid growth, % test/control
- EXPERIMENTAL PROTOCOL: Anticancer human tumor 327498-153-R-J2-PDC patient-derived uterine carcinosarcoma cell line growth inhibition [Asc]
- CONDITION NOTES: second compound 0.316 µM; first compound 0.0316 µM; stronger effect = lower value
PROPERTY: viability, T/C (%)
Write the answer as a number in %, unit excluded.

Completed entries (count: 5):
Ask: Form: Entry = O=C(c1ccc(F)c(F)c1Nc1ccc(I)cc1F)N1CC(O)([C@@H]2CCCCN2)C1 + CNC(C)C(=O)NC1CN(S(=O)(=O)c2cccc(S(=O)(=O)N3CCC4CCC(C(=O)NC(c5ccccc5)c5ccccc5)N4C(=O)C(NC(=O)C(C)NC)C3)c2)CCC2CCC(C(=O)NC(c3ccccc3)c3ccccc3)N2C1=O | System = 327498-153-R-J2-PDC complex spheroid growth, % test/control | viability, T/C = ____
Reply: 77.7

Ask: Next record, please: COc1c(OCCCN2CCOCC2)ccc2c3n(c(=NC(=O)c4cnc(N)nc4)nc12)CCN3 + Cc1c(S(C)(=O)=O)c(-c2cc(F)cc(N3CCN(c4ccc(NS(=O)(=O)c5ccc(NC(CCN6CCC(C(=O)OCCCP(=O)(O)O)CC6)CSc6ccccc6)c(S(=O)(=O)C(F)(F)F)c5)cc4)CC3)c2)c(-c2ccc(Cl)cc2)n1C(C)C
Reply: 77.2

Ask: Same question, Cn1ncnc1[C@H]1c2n[nH]c(=O)c3cc(F)cc(c23)N[C@@H]1c1ccc(F)cc1 + Cc1c(S(C)(=O)=O)c(-c2cc(F)cc(N3CCN(c4ccc(NS(=O)(=O)c5ccc(NC(CCN6CCC(C(=O)OCCCP(=O)(O)O)CC6)CSc6ccccc6)c(S(=O)(=O)C(F)(F)F)c5)cc4)CC3)c2)c(-c2ccc(Cl)cc2)n1C(C)C this time
Reply: 14.9

Ask: Let us now turn to O=C(c1cc(Cc2n[nH]c(=O)c3ccccc23)ccc1F)N1CCN(C(=O)C2CC2)CC1 + CNC(C)C(=O)NC1CN(S(=O)(=O)c2cccc(S(=O)(=O)N3CCC4CCC(C(=O)NC(c5ccccc5)c5ccccc5)N4C(=O)C(NC(=O)C(C)NC)C3)c2)CCC2CCC(C(=O)NC(c3ccccc3)c3ccccc3)N2C1=O
Reply: 104

Ask: Now consider C=C(F)C(=O)N1CCN(c2nc(OCC3CCCN3C)nc3c2CCN(c2cccc4cccc(Cl)c24)C3)CC1CC#N (stereo unspecified) + Cc1c(S(C)(=O)=O)c(-c2cc(F)cc(N3CCN(c4ccc(NS(=O)(=O)c5ccc(NC(CCN6CCC(C(=O)OCCCP(=O)(O)O)CC6)CSc6ccccc6)c(S(=O)(=O)C(F)(F)F)c5)cc4)CC3)c2)c(-c2ccc(Cl)cc2)n1C(C)C and answer again.
Reply: 66.6

Further cases:
Ask: Form field: viability, T/C recorded for O=C(c1cc(Cc2n[nH]c(=O)c3ccccc23)ccc1F)N1CCN(C(=O)C2CC2)CC1 + Cc1c(S(C)(=O)=O)c(-c2cc(F)cc(N3CCN(c4ccc(NS(=O)(=O)c5ccc(NC(CCN6CCC(C(=O)OCCCP(=O)(O)O)CC6)CSc6ccccc6)c(S(=O)(=O)C(F)(F)F)c5)cc4)CC3)c2)c(-c2ccc(Cl)cc2)n1C(C)C with 327498-153-R-J2-PDC complex spheroid growth, % test/control (enter value)
Reply: 85.4

Ask: Same read-out for Cn1ncnc1[C@H]1c2n[nH]c(=O)c3cc(F)cc(c23)N[C@@H]1c1ccc(F)cc1 + CNC(C)C(=O)NC1CN(S(=O)(=O)c2cccc(S(=O)(=O)N3CCC4CCC(C(=O)NC(c5ccccc5)c5ccccc5)N4C(=O)C(NC(=O)C(C)NC)C3)c2)CCC2CCC(C(=O)NC(c3ccccc3)c3ccccc3)N2C1=O ?
Reply: 21.5

Ask: Let us now turn to C=CC(=O)N1CCN(c2nc(=O)n(-c3c(C)ccnc3C(C)C)c3nc(-c4c(O)cccc4F)c(F)cc23)C(C)C1 (stereo unspecified) + Cc1c(S(C)(=O)=O)c(-c2cc(F)cc(N3CCN(c4ccc(NS(=O)(=O)c5ccc(NC(CCN6CCC(C(=O)OCCCP(=O)(O)O)CC6)CSc6ccccc6)c(S(=O)(=O)C(F)(F)F)c5)cc4)CC3)c2)c(-c2ccc(Cl)cc2)n1C(C)C
Reply: 73.5

Ask: // repeat for CCN1CCN(Cc2ccc(Nc3ncc(F)c(-c4cc(F)c5nc(C)n(C(C)C)c5c4)n3)nc2)CC1 + Cc1c(S(C)(=O)=O)c(-c2cc(F)cc(N3CCN(c4ccc(NS(=O)(=O)c5ccc(NC(CCN6CCC(C(=O)OCCCP(=O)(O)O)CC6)CSc6ccccc6)c(S(=O)(=O)C(F)(F)F)c5)cc4)CC3)c2)c(-c2ccc(Cl)cc2)n1C(C)C and report
Reply: 78.2

Ask: Moving on to the next molecule: C#Cc1c(F)ccc2cc(O)cc(-c3ncc4c(N5CC6CCC(C5)N6)nc(OCC56CCCN5CC(F)C6)nc4c3F)c12 (stereo unspecified) + Cc1c(S(C)(=O)=O)c(-c2cc(F)cc(N3CCN(c4ccc(NS(=O)(=O)c5ccc(NC(CCN6CCC(C(=O)OCCCP(=O)(O)O)CC6)CSc6ccccc6)c(S(=O)(=O)C(F)(F)F)c5)cc4)CC3)c2)c(-c2ccc(Cl)cc2)n1C(C)C
Reply: 102

Ask: Record: CNC(C)C(=O)NC1CN(S(=O)(=O)c2cccc(S(=O)(=O)N3CCC4CCC(C(=O)NC(c5ccccc5)c5ccccc5)N4C(=O)C(NC(=O)C(C)NC)C3)c2)CCC2CCC(C(=O)NC(c3ccccc3)c3ccccc3)N2C1=O (stereo unspecified) + Cc1c(S(C)(=O)=O)c(-c2cc(F)cc(N3CCN(c4ccc(NS(=O)(=O)c5ccc(NC(CCN6CCC(C(=O)OCCCP(=O)(O)O)CC6)CSc6ccccc6)c(S(=O)(=O)C(F)(F)F)c5)cc4)CC3)c2)c(-c2ccc(Cl)cc2)n1C(C)C
Reply: 96.6

---

In this section we review reported pIC50 values for a set of compounds.
- Tested on: 327498-153-R-J2-PDC complex spheroid growth, % test/control
- EXPERIMENTAL PROTOCOL: Anticancer human tumor 327498-153-R-J2-PDC cell line growth inhibition [Asc];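 also: spheroids exposed to compound for 7 days after 3 days of growth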
- CONDITION NOTES: curve of first compound; second compound 0.316 µM
pIC50: −log10 of the molar value.

Record excerpt, results attached:
Ask: So what does the record say about pIC50 for CCN1CCN(Cc2ccc(Nc3ncc(F)c(-c4cc(F)c5nc(C)n(C(C)C)c5c4)n3)nc2)CC1 + CNC(C)C(=O)NC1CN(S(=O)(=O)c2cccc(S(=O)(=O)N3CCC4CCC(C(=O)NC(c5ccccc5)c5ccccc5)N4C(=O)C(NC(=O)C(C)NC)C3)c2)CCC2CCC(C(=O)NC(c3ccccc3)c3ccccc3)N2C1=O ?
Reply: < 6.00

Ask: Another: NC1CCC(NC2CC2c2ccccc2)CC1 (centres undefined) + Cc1c(S(C)(=O)=O)c(-c2cc(F)cc(N3CCN(c4ccc(NS(=O)(=O)c5ccc(NC(CCN6CCC(C(=O)OCCCP(=O)(O)O)CC6)CSc6ccccc6)c(S(=O)(=O)C(F)(F)F)c5)cc4)CC3)c2)c(-c2ccc(Cl)cc2)n1C(C)C
Reply: < 7.00

Ask: Subsequent entry: NC(=O)C(=Cn1cnc(-c2cc(C(F)(F)F)cc(C(F)(F)F)c2)n1)c1cncnc1 + Cc1c(S(C)(=O)=O)c(-c2cc(F)cc(N3CCN(c4ccc(NS(=O)(=O)c5ccc(NC(CCN6CCC(C(=O)OCCCP(=O)(O)O)CC6)CSc6ccccc6)c(S(=O)(=O)C(F)(F)F)c5)cc4)CC3)c2)c(-c2ccc(Cl)cc2)n1C(C)C
Reply: 7.40

Now look at this one.
Ask: Item under review: C=CC(=O)N1CCN(c2nc(=O)n(-c3c(C)ccnc3C(C)C)c3nc(-c4c(O)cccc4F)c(F)cc23)C(C)C1 (centres undefined) + CNC(C)C(=O)NC1CN(S(=O)(=O)c2cccc(S(=O)(=O)N3CCC4CCC(C(=O)NC(c5ccccc5)c5ccccc5)N4C(=O)C(NC(=O)C(C)NC)C3)c2)CCC2CCC(C(=O)NC(c3ccccc3)c3ccccc3)N2C1=O . Reported pIC50?
Reply: < 5.00

---

- Test system: 327498-153-R-J2-PDC complex spheroid growth, % test/control
- EXPERIMENTAL PROTOCOL: Anticancer human tumor 327498-153-R-J2-PDC cell line growth inhibition [Asc];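 also: spheroids exposed to compound for 7 days after 3 days of growth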;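 as to viability, T/C: 100% = DMSO vehicle control wells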
- CONDITION NOTES: second compound 0.1 µM; first compound 3 µM; stronger effect = lower value
- Source text: Multicellular complex tumor spheroid response to apoptosis pathway targeting inhibitors Alrizomadlin, Pelcitoclax, and Dasminapant in combination with a variety of drugs and investigational agents in selected tumor cell lines […] Compounds. […] If the clinical Cmax for an agent had not been determined, the highest concentration tested was 10 microM. […]
compounds and their reported viability, T/C
Respond numerically; units are % and should not be typed.

Below, 3 compounds whose answers are already recorded.
Ask: What viability, T/C appears in the records for this compound with 327498-153-R-J2-PDC complex spheroid growth, % test/control? CCN1C(C(=O)NC23CCC(C(=O)O)(CC2)CC3)C(c2cccc(Cl)c2F)C2(C(=O)Nc3cc(Cl)ccc32)C12CCCCC2 (centres undefined) + CNC(C)C(=O)NC1CN(S(=O)(=O)c2cccc(S(=O)(=O)N3CCC4CCC(C(=O)NC(c5ccccc5)c5ccccc5)N4C(=O)C(NC(=O)C(C)NC)C3)c2)CCC2CCC(C(=O)NC(c3ccccc3)c3ccccc3)N2C1=O
Reply: 1.93

Ask: Now give it for CCN1C(C(=O)NC23CCC(C(=O)O)(CC2)CC3)C(c2cccc(Cl)c2F)C2(C(=O)Nc3cc(Cl)ccc32)C12CCCCC2 (centres undefined) + Cc1c(S(C)(=O)=O)c(-c2cc(F)cc(N3CCN(c4ccc(NS(=O)(=O)c5ccc(NC(CCN6CCC(C(=O)OCCCP(=O)(O)O)CC6)CSc6ccccc6)c(S(=O)(=O)C(F)(F)F)c5)cc4)CC3)c2)c(-c2ccc(Cl)cc2)n1C(C)C too.
Reply: 2

Ask: Try Cc1nc(N2CCC3(CC2)COC(C)C3N)c(CO)nc1Sc1ccnc(N)c1Cl (centres undefined) + Cc1c(S(C)(=O)=O)c(-c2cc(F)cc(N3CCN(c4ccc(NS(=O)(=O)c5ccc(NC(CCN6CCC(C(=O)OCCCP(=O)(O)O)CC6)CSc6ccccc6)c(S(=O)(=O)C(F)(F)F)c5)cc4)CC3)c2)c(-c2ccc(Cl)cc2)n1C(C)C next.
Reply: 44.5

Continuing:
Ask: Give viability, T/C (327498-153-R-J2-PDC complex spheroid growth, % test/control) of the following compound: Cc1nc(N2CCC3(CC2)COC(C)C3N)c(CO)nc1Sc1ccnc(N)c1Cl (centres undefined) + CNC(C)C(=O)NC1CN(S(=O)(=O)c2cccc(S(=O)(=O)N3CCC4CCC(C(=O)NC(c5ccccc5)c5ccccc5)N4C(=O)C(NC(=O)C(C)NC)C3)c2)CCC2CCC(C(=O)NC(c3ccccc3)c3ccccc3)N2C1=O
Reply: 59.9
